Recorded EC50 values for a group of binders are listed next.
# target system: T1, human c-Met (HGFR), full length, on the cell surface (human, UniProt P08581 25-1390)
# T1 construct: Endogenous c-Met on human tumor cell lines MKN45, NCI-H596, PC-3 and HepG2; also called hepatocyte growth factor receptor; mesenchymal-epithelial transition factor
# T1 sequence (P08581 25-1390 limits assumed): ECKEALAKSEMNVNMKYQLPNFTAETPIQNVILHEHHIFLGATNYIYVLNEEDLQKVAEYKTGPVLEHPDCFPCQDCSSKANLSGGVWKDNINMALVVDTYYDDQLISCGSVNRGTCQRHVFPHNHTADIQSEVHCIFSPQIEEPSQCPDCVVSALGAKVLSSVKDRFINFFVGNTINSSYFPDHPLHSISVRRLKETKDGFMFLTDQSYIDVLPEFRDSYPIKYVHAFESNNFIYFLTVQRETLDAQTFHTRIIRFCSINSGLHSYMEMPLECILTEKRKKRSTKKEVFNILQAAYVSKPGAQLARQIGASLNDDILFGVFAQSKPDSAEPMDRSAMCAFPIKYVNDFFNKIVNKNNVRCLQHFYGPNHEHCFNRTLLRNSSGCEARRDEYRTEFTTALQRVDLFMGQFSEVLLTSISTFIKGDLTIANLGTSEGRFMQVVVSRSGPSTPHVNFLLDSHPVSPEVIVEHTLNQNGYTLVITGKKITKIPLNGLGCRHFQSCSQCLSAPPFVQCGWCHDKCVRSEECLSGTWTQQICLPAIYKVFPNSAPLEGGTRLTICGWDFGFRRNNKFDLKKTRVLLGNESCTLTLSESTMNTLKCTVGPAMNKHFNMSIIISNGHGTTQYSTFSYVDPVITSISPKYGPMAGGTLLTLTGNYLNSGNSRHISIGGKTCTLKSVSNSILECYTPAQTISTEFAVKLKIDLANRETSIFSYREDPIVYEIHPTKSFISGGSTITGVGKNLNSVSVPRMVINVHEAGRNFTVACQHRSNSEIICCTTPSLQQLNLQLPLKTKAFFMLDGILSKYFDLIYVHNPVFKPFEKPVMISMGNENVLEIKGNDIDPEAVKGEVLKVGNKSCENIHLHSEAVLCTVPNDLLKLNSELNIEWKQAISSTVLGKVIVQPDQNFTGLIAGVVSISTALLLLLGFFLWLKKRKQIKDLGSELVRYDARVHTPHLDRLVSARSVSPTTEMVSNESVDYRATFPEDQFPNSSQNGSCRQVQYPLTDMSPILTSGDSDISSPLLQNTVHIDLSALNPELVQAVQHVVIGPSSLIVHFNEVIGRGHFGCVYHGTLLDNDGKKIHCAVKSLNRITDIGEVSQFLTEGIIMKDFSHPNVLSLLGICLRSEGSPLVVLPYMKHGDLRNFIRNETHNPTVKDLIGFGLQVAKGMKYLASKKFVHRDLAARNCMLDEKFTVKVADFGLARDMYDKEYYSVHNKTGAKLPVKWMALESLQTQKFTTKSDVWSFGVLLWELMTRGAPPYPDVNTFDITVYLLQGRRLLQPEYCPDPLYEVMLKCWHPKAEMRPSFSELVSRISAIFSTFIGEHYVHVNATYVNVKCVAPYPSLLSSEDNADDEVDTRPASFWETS
# procedure text: flow cytometry, NCI-H596 cells pre-incubated with 50 ng/mL HGF
result type: EC50 (µg/mL)

mAb2b (antibody, human IgG1, kappa, V domains shown, Humanized IgG1 kappa, HC-41C, from wt/41C-chi-mAb2; also called humanized HC-41C antibody mAb2b) VH: QVQLVQSGAEVKKPGSSVKVSCKASGYVFPDYEMHWVRQACGQGLEWMGAFDPETGDTTYNQNFKGRVTITADKSTSTAYMELSSLRSEDTAVYYCARDYKYLYYYAMDNWGQGTTVTVSS VL: DIQMTQSPSSLSASVGDRVTITCTASSSITSSYLHWYQQKPGKAPKLLIYSTTNLASGVPSRFSGSGSGTDFTLTISSLQPEDFATYYCHQYRRSPLTFGGGTKLEIKR; 0.11
mAb3d (antibody, human IgG1, kappa, V domains shown, Humanized IgG1 kappa, HC-41C, from wt/41C-chi-mAb3; also called humanized HC-41C antibody mAb3d) VH: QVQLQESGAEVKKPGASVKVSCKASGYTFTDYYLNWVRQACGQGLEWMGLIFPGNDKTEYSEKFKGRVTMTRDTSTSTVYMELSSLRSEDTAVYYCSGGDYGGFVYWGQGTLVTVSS VL: DIQLTQSPSSLSASVGDRVTITCGASENIYGALNWYQQKPGKAPKLLIYGATNLADGVPSRFSGSGSGTDFTLTISSLQPEDFATYYCQNVLSSPLTFGPGTKVDIKR; 0.15
mAb3b (antibody, human IgG1, kappa, V domains shown, Humanized IgG1 kappa, HC-41C, from wt/41C-chi-mAb3; also called humanized HC-41C antibody mAb3b) VH: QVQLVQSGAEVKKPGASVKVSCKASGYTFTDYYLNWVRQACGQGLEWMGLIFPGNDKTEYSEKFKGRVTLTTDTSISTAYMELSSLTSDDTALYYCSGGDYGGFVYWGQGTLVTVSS VL: DIQMTQSPSSLSASVGDRVTISCGASENIYGALNWYQQQPGKAPKVLIFGATNLADGVPSRFSGSGSGTDFTLTISSLQPEDFATYYCQNVLSSPLTFGQGTKLEIKR; 0.07
mAb1a (antibody, human IgG1, kappa, V domains shown, Humanized IgG1 kappa, HC-41C, from wt/41C-chi-mAb1; also called humanized HC-41C antibody mAb1a; mAbla) VH: QVQLVQSGAEVKKPGASVKVSCKASGYIFTDYFMNWVRQACGQGLEWMGRVNPKNGDITYNQKFRGRVSLTKDTSINTAYMELSGLTSDDTAIYYCAYDGYYDGMDFWGQGTSVTVSS VL: ELVMTQSPSSLSASVGDRVTITCRANSSVSSNFLHWYQQKPGKAPKLLISSTSNLAFGVPSRFSGTGSGTDFSLTISSLQPEDFAIYYCHQYSGHPFTFGQGTKLEIKR; 0.1
